Target: T1, recombinant human VEGFR2 extracellular domain (human, UniProt P35968 20-764)
T1 construct: extracellular domain; also called KDR; Flk-1
T1 sequence (P35968 20-764): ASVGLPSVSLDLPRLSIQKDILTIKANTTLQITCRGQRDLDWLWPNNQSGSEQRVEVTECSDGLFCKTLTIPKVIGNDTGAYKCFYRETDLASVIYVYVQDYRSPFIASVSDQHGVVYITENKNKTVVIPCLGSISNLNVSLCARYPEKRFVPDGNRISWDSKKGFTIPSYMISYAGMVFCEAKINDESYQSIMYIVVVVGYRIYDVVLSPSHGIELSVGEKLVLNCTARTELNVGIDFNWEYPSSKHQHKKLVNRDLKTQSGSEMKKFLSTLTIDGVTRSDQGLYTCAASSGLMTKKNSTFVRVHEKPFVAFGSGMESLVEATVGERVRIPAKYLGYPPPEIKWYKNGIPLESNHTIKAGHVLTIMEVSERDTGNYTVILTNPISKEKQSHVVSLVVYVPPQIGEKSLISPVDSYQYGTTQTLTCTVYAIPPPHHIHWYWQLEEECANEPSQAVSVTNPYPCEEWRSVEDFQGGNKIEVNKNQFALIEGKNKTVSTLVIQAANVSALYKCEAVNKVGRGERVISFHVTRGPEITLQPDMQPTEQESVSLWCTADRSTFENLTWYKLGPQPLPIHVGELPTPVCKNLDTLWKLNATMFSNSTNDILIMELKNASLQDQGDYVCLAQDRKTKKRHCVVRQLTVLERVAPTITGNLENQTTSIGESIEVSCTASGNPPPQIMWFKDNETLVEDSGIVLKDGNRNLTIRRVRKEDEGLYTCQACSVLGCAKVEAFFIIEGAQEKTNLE
Assay: SPR (BIAcore 3000), VEGFR2 amine-coupled to CM5 chip, scVEGF as analyte, 1:1 model
observedProperty: kon (M⁻¹ s⁻¹)
State just the number; it will be interpreted in M⁻¹ s⁻¹.

{"columns": ["binder", "kon / M⁻¹ s⁻¹"],
 "data": [
  ["scVEGF-mE (designed binder, Soluble protein with C-terminal hexahistidine tag, with or without N-terminal FLAG tag (tags not included in the parts); also called scVEGFmut-E) EVVKAMDVYQRSYCHPIETLVDILQEYPDEIGYIFKPSCVPLMRCGGCCNGAGLECVPTEESNITMQIMRIKPHRGQHIGEMSFLQHNKCECRPKKDGSTSGSGKSSEGKGEVVRFMDVYQRSYCHPIETLVDIFQEYPNEIEYAFKPSCVPLMRCGGCCNNEGLECVPTEESNITMQIMRAKPHQGQHIGEMSFLQHNKCECRPKKD", 220000]
]}

Please examine the following record next.
Query string: Given the binder scVEGF-mM (designed binder, Soluble protein with C-terminal hexahistidine tag, with or without N-terminal FLAG tag (tags not included in the parts); also called scVEGFmut-M) EVVKAMDVYRRSYCHPVETSVDILQEYPDEIEYIFKPSCVPLMRCGGCCNDAGLECVPTEESNTTMQIMRIKPYRGQHIGEMSFLQHNKCECRPKKDGSTSGSGKSSEGKGEVVKFMDVYQRSYCHPIETLVDIFQEYPDEIEYAFKPSCVSLMRCGGCCNNEGLECVPTEESNITVQIMGAKPHQGQHIGEMSFLQHNKCECRPKKD , what is its reported kon?
Result string: 290000

All figures here come from patent US20160039895A1.
